Target Or Test System: human mGluR5 (Homo sapiens)
Construct: expressed in transfected cells; host or cells: AV-12 cells (ATCC) containing the rat EAAT1 glutamate transporter
Sequence (P41594 21-1180 isoform P41594-2 limits assumed): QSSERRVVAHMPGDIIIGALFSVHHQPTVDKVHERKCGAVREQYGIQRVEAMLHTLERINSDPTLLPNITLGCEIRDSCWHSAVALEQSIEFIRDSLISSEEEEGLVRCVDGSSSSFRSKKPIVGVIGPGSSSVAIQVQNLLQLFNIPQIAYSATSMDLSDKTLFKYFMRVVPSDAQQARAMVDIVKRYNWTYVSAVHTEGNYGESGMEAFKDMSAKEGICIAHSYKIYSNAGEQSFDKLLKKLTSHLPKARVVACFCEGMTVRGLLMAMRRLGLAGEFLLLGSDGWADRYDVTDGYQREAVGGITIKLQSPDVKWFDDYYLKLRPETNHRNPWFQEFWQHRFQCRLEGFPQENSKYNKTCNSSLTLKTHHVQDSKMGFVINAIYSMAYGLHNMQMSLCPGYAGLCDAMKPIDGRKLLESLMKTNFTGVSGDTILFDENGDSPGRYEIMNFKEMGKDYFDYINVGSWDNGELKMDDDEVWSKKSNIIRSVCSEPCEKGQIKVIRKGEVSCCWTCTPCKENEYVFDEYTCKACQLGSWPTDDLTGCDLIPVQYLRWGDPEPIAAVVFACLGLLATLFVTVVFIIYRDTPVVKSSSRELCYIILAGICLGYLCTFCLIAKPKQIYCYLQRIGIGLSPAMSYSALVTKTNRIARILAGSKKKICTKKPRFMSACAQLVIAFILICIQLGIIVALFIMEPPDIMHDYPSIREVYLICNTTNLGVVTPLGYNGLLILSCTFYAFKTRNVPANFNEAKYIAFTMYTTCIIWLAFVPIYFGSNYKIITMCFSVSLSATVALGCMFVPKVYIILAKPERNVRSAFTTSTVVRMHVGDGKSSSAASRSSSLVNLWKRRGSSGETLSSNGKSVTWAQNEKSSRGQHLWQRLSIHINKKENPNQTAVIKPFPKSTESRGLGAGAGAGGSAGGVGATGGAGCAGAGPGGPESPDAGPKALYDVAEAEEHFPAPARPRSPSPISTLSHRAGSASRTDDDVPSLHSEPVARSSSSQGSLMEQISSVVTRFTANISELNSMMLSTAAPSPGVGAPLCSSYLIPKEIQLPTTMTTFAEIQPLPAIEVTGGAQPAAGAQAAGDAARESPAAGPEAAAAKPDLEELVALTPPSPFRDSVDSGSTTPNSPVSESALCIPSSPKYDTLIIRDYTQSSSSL
Measurement Notes: Functional in vitro activity at human mGluR5 receptors (FLIPR calcium assay, antagonism of glutamate EC90 response)
Type: cell-based
Measurement Setup: AV-12 cells expressing recombinant human mGluR5a and rat EAAT1, relative IC50, read-out: IC50 measured at mGluR5
Property Name: pIC50
Formally, pIC50 is defined as -log10 of the concentration c, with c in mol/L.

For CCc1cccc(-c2c(-c3ccc4nn(C)cc4c3)nsc2NC(=O)[C@@H]2C[C@H]2C)n1.Cl [Example 2, hydrochloride] on human mGluR5 (Homo sapiens), measured pIC50 was 8.02

Values from patent US7932274B2
